Form field: PBM binding z-score (one value per entry).
system: LXRb:RXRa (NR concentration 270 nM, RXRa partner concentration 90 nM); assay: PBM binding z-score (relative to random genomic background probes); higher = stronger binding; sequences stand for … in GC…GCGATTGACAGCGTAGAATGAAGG
No unit in the answer, please; the number alone is enough.

{"columns": ["residueCodes", "reportedValue"],
 "data": [
  ["GATACAGGGTCAGCGAGAGGCCAGAGTATGGAAA", 2.63],
  ["GCTTCTAGGTCAGGTTGGTCAGCTAACGGGTACG", 1.17],
  ["CCTGCTGGGTCATGGTCAGCTAATCTACAGTATG", 1.42]
]}

response.value for ATATGTAGGTTATCAGGTCATTCAGTTTGCGCAT (field: PBM binding z-score) = 2.93

response.value for CGATCTAGGTCATTGACAGGACAGTGAATAGTAA (field: PBM binding z-score) = 2.07

###

system: RARb:RXRa (NR concentration 270 nM, RXRa partner concentration 90 nM); assay: PBM binding z-score (relative to random genomic background probes); higher = stronger binding; sequences stand for … in GC…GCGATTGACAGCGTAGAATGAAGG
Form field: PBM binding z-score (one value per entry).
No unit in the answer, please; the number alone is enough.

Answered cases to consult:
{"columns": ["residueCodes", "reportedValue"],
 "data": [
  ["CCTACTGGGCCATAAAGGTCATTGATGCCGATAA", 3.89],
  ["ATATGTAGGTTAGCTGGGGTCATTCGGACTAGGC", 3.05],
  ["TTACCAATGTGAAGGTCGTTGATCCCTCTGTAGA", 0.862],
  ["AGAATGAGGTTACCGAAGATCAGGGAAACGCTTG", 2.19],
  ["ATCTCTAGGTAACCAAGTTCAGTTAATGCCGAAC", 1.18]
]}

response.value for ACCTCTAGGTAAAGTTCAGTGAAAGATCGATAGA (field: PBM binding z-score) = 2.41

###

tested on: PPARg:RXRa 270nM:90nM, anti-RXR (NR concentration 270 nM, RXRa partner concentration 90 nM); experiment: PBM binding z-score (relative to random genomic background probes); higher = stronger binding; sequences stand for … in GC…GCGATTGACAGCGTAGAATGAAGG
Categorize each record by its PBM binding z-score using A: < 1; B: ≥ 1 and < 4; C: ≥ 4

{"columns": ["residueCodes", "answerLabel"],
 "data": [
  ["CCTACTGGGCCACGAAAGGTCATTAATTCAGTGA", "C"]
]}

input: In plain terms, what class is ACTAGCAGGCCAAGTTTGGGTCACTCGAACAAAG ?
output: A

input: In plain terms, what class is ATCTTTAGGTAAGACTCAGTTCAGTGAAGAACGC ?
output: A

input: In plain terms, what class is ATATGTACGTTATCGGGTCATTCAGTTTGCGCAT ?
output: B

input: In plain terms, what class is TCATATAGGTAAACAAGTGAAAGTCCGTAAGTTA ?
output: B

input: In plain terms, what class is CCTACTGGGCCAAAAAGGTCATTCATGCCGATAA ?
output: C

input: In plain terms, what class is CTCGAAAGGTCGGTTGAGGTGAGTATACGGATAA ?
output: B

input: In plain terms, what class is CGATCTAGGTCAGAACAGGACAGTGAAGGATGAT ?
output: B

input: In plain terms, what class is TCTGCTAGGTCAACGATGGTCAGGTAATCTGCTA ?
output: B

input: In plain terms, what class is ATCTCTAGGTAAAGTTGAGTGAAAGATCGATAGA ?
output: B

input: In plain terms, what class is CCTACTGGGCCATTCACAGGTCATTGATCATATG ?
output: B

input: In plain terms, what class is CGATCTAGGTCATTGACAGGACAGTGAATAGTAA ?
output: C

input: In plain terms, what class is AGAACGAGGGCACGCCGAGTTGATAGCAGAGTAG ?
output: B

input: In plain terms, what class is CGAACGAGGGCATAAGTTGATAGCAAATGCCGAT ?
output: B

input: In plain terms, what class is CGTCCAAGGTCAGCAGGTCAGTGATAGCGACGTG ?
output: C

input: In plain terms, what class is CAAACTAGGTCAAGAGGTCAAAGACCGCTTCCCG ?
output: C

input: In plain terms, what class is TCTTGTAGATCAACAGGAGGTTAAGAATGATCGA ?
output: B

input: In plain terms, what class is CCTCGGAAGACAGAAGGTCAGAGCTGTCCGCTTT ?
output: A

input: In plain terms, what class is TCTTGTAGATCAGTAGGTTAAGAAAGCTGGCCAA ?
output: B

###

test system: PPARg:RXRa IVT, anti-PPARg (NR concentration 270 nM, RXRa partner concentration 90 nM); assay: PBM binding z-score (relative to random genomic background probes); higher = stronger binding; sequences stand for … in GC…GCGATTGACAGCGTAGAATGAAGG
quantityKind: PBM binding z-score
No unit in the answer, please; the number alone is enough.

{"columns": ["residueCodes", "assayedSystem", "PBM binding z-score"],
 "data": [
  ["CAAACTAGGTCACCGGACGGTCAAAGTCCGCATG", "PPARg:RXRa IVT, anti-PPARg (NR concentration 270 nM, RXRa partner concentration 90 nM)", 8.82],
  ["TAGCCTAGGTCATGCGGGCCCGTATAGTGTCGGC", "PPARg:RXRa IVT, anti-PPARg (NR concentration 270 nM, RXRa partner concentration 90 nM)", 3.05],
  ["AGAATGAGGTTACCACAGATCAGGGAAACGCTTG", "PPARg:RXRa IVT, anti-PPARg (NR concentration 270 nM, RXRa partner concentration 90 nM)", 3.38],
  ["ATAATGAGGTTACCAAAGATCAGGGAAACGCTTG", "PPARg:RXRa IVT, anti-PPARg (NR concentration 270 nM, RXRa partner concentration 90 nM)", 3.93],
  ["GCTATTATTTGAAAGGGCAACCGAATGATTCTCG", "PPARg:RXRa IVT, anti-PPARg (NR concentration 270 nM, RXRa partner concentration 90 nM)", 0.479]
]}

response.value for TCTATTAGTTGATTAGGGCGACCGAAACAGCGGA (field: PBM binding z-score) = 0.486

response.value for CCTACAGGGCCAAAAAGGTCATTGATGCCGATAA (field: PBM binding z-score) = 0.938

response.value for GCTTACTGGTCAAAGGTTATAGCATGAATAGAAT (field: PBM binding z-score) = 3.37

response.value for CGTCCAAGGTCACAGGTCAGTGAAGAGATGACGG (field: PBM binding z-score) = 5.24

response.value for ACAGACAGGTGATGAAGATAACTCAGGCTATCAT (field: PBM binding z-score) = 0.209

response.value for CCTGCTAGGTCATGGTCATCTAATCTACAGTATG (field: PBM binding z-score) = 3.88

response.value for CTCGAAAGGTCGTGCTAAGGTGAGTATACCAAAC (field: PBM binding z-score) = 2.19

response.value for AGGACGAGGGCAATGAGTTGATAGCACGGGTGGC (field: PBM binding z-score) = 1.02

###

tested on: PPARg:RXRa 30nM:10nM, anti-RXR (NR concentration 30 nM, RXRa partner concentration 10 nM); experiment: PBM binding z-score (relative to random genomic background probes); higher = stronger binding; sequences stand for … in GC…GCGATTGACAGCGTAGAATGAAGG
quantityKind: PBM binding z-score
No unit in the answer, please; the number alone is enough.

Answered cases to consult:
{"columns": ["residueCodes", "reportedValue"],
 "data": [
  ["CCTCGGAGGACAACTGGAGGTCAGAGCTGCCAGA", -0.723],
  ["CCGACTGGGGCATAAGGTTATCATAAGCCAGCCC", 1.39],
  ["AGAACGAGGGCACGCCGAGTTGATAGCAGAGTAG", 0.0797],
  ["AGAATAAGGTTACCAAAGATCAGGGAAACGCTTG", 0.732],
  ["ATCTCTAGGTAACCAAGTTCAGTGATTGCCGAAC", 0.204],
  ["TGGAGTAGGTTACCAATGGGGCATTCAGCTTTCT", 0.743],
  ["AGTCAAAGTTCATCTAGGTAGCGTAAGATATGCT", 3.49],
  ["TTACCAAGGCGAAGGTCGTTGATCCCTCTGTAGA", 3.02]
]}

response.value for ATCGAAAGGTCGTGAGGTGAGTATTCAGAAAGGC (field: PBM binding z-score) = 1.5

response.value for GCGACTGGGGCAAAGCAGTTTACCATAAGGTTGG (field: PBM binding z-score) = -0.433

response.value for CGAACTAGGTCAAGCACAGTGAATCTCCGCACGC (field: PBM binding z-score) = 4.49

response.value for ATCTCTAGGTTAAGTTCAGTGAAAGATCGATAGA (field: PBM binding z-score) = 1.11

response.value for CGTCCAAGGACAAGGTCAGTGAAAGAGACTCGAA (field: PBM binding z-score) = -0.0239

response.value for CAAACTAGGTCACGGAGGTCAAAGTCCGTGCGTA (field: PBM binding z-score) = 7.09

response.value for ACTCTTAGTTGACTTAGGGCAACCGATACGACGC (field: PBM binding z-score) = 0.38

response.value for ATATGTAGGTTAAGGGTCAATCAGGTTGGTTCGC (field: PBM binding z-score) = 10.1

response.value for CCTTGCGGGTCACGAGGTTATAGCACGACGAGCG (field: PBM binding z-score) = 4.06

response.value for CCGAGTAGGTTATGGGGTATTCAGGCAACGGTGA (field: PBM binding z-score) = 0.984

response.value for ACTATTAGTTTACTTAGGGCAACCGATACGACGC (field: PBM binding z-score) = 0.394

response.value for TAGCCTAGGTCATGCGCGCCAGTATAGTGTCGGC (field: PBM binding z-score) = 0.197

response.value for TGAATAAGGTTATAAGATCAGGGAACGTTGCAAA (field: PBM binding z-score) = 1.06

response.value for GCATATAGGTAATACAAGGTGAATGTCCGATTGT (field: PBM binding z-score) = 0.382

response.value for CTCGATAGGTCGGTTGAGGTGAGTATACGGATAA (field: PBM binding z-score) = -0.208

response.value for ATCTCTTGGTAAGACTCAGTTCAGTGAAGAACGC (field: PBM binding z-score) = 0.448

response.value for GCTTGTAGACCAAGGTTAAGAAAGACTAAGCTAA (field: PBM binding z-score) = 0.387

response.value for GGAACGAGGGCATTCGAGTTGAGAGCATGGCGAT (field: PBM binding z-score) = -0.289
